# experimentalTarget: dopamine D3 receptor (Homo sapiens)
# Construct: expressed in transfected cells; host or cells: CHO cells (crude cell membranes)
# Sequence (P35462 whole entry): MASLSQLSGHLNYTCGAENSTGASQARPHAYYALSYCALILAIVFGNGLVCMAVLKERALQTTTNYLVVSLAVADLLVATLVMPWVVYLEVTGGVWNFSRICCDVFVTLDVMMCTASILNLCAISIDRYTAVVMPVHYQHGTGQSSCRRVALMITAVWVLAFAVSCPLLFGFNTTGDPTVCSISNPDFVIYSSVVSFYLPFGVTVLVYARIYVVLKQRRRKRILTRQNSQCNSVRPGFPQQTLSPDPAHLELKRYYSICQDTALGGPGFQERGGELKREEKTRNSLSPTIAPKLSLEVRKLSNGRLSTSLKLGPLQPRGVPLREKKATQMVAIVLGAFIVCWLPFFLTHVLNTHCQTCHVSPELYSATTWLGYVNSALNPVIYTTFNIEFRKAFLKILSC
# experimentalDetails: Binding experiments on cloned dopamine receptors: displacement of [125I]-Iodosulpride
# testParameters: cloned human D3 receptor expressed in CHO cells, [125I]-Iodosulpride displacement; pKi accurate to about ±0.2-0.3
# Description: Binding Experiments on Cloned Dopamine (e.g. D2, D3 and D4) Receptors Cultures were grown as monolayers or in suspension in standard cell culture media. […] The total volume is 0.2 ml and incubated in a water bath at 37° C. for 40 minutes. […] The radioactivity on the filters was measured using a Canberra Packard Topcount Scintillation counter. […] Competition curves were analysed using Inflexion, an iterative curve fitting programme in Excel. Results were expressed as pKi values where pKi=−log 10 [Ki].
The entries below come with measured Ki values attached.

molecule	Ki
Cc1ccc2cc(-c3nnc(SCCCN4CCc5ccc(-c6ncc(C)o6)cc5CC4)n3C)ccc2n1 [Example 168]	0.316 to 10 nM
CS(=O)(=O)c1ccc2c(c1)CCN(CCCSc1nc(-c3ccccc3)c(-c3ccccc3)[nH]1)CC2 [Example 5]	0.316 to 10 nM
CCS(=O)(=O)c1ccc2c(c1)CCN(CCCSc1nnc(-c3cc4ccccc4o3)n1C)CC2 [Example 95]	0.316 to 10 nM
Cn1c(SCCCN2CCc3ccc(OS(C)(=O)=O)cc3CC2)nnc1-c1ccc(F)cc1 [Example 14]	0.316 to 10 nM
Cn1c(SCCCN2CCc3ccc(S(C)(=O)=O)cc3CC2)nnc1-c1cc2ccccc2[nH]1 [Example 72]	0.316 to 10 nM
